- PROCEDURE DETAILS: physchem
- Type: physicochemical
- APPLIED CONDITIONS: aqueous buffer, kinetic from dmso stock; PBS pH 7.4, 24 h; read-out: Kinetic Solubility pH 7.4 (LogS) (converted)
QUANTITY: solubility kinetic (µM)
Give bare numbers, in µM.

C=C1[C@@H](C)[C@H]2[C@H](Cc3ccccc3)NC(=O)[C@]23[C@H](OC(C)=O)/C=C/[C@@](C)(O)C(=O)[C@@H](C)C/C=C/[C@H]3[C@@H]1O; 46.8
C=C1[C@@H](C)[C@H]2[C@H](Cc3ccccc3)NC(=O)[C@]23OC(=O)/C=C/C(=O)CCC[C@@H](C)C/C=C/[C@H]3[C@@H]1O; 69.2
C=C1[C@@H](C)[C@H]2[C@H](Cc3ccccc3)NC(=O)[C@]23OC(=O)/C=C/[C@H](O)CCC[C@@H](C)C/C=C/[C@H]3[C@@H]1O; 77.6

Lab book: solubility kinetic of CC(=O)OC1C=CC(C)(O)C(=O)C(C)CC=CC2C(O)C(C)=C(C)C3C(Cc4ccccc4)NC(=O)C123 (stereo not shown) noted as 46.8
